Reported photoluminescence quantum yield values are given for each entry in this list.
assay: photoluminescence quantum yield (fraction); solvent given as SMILES; conditions: in C1COCCO1
Response field accepts a number only; no unit should be typed.

Some compounds with recorded photoluminescence quantum yield:
Query string: Consider the compound shown here: COc1cc(N(c2ccc(C=C(C#N)C#N)c(OC)c2)c2ccc(C=C(C#N)C#N)c(OC)c2)ccc1C=C(C#N)C#N What is its recorded photoluminescence quantum yield?
Result string: 0.025

Query string: Consider the compound shown here: Cc1ccc(C2=C3C=CC(c4ccccc4)=[N+]3[B-](F)(F)n3c(Cl)ccc32)cc1 What is its recorded photoluminescence quantum yield?
Result string: 0.079

Further cases:
Query string: Consider the compound shown here: O=c1c2ccccc2sc2ccccc12 What is its recorded photoluminescence quantum yield?
Result string: 0.015

Query string: Consider the compound shown here: O=C1/C(=C2\Sc3ccccc3C2=O)Sc2ccccc21 What is its recorded photoluminescence quantum yield?
Result string: 0.54

Query string: Consider the compound shown here: NS(=O)(=O)c1ccc(N2N=C(c3ccc(O)cc3)CC2c2ccc(Cl)cc2)cc1 (stereo not drawn) What is its recorded photoluminescence quantum yield?
Result string: 0.72

Query string: Consider the compound shown here: CCCCN(CCCC)c1ccc(/C=C/c2ccc3nc(/C=C/c4ccc(N(C)C)cc4)c(-c4ccccc4)nc3c2)cc1 What is its recorded photoluminescence quantum yield?
Result string: 0.44

Query string: Consider the compound shown here: N#Cc1ccc(/C=C2\N=C(c3ccccc3)NC2=O)cc1 What is its recorded photoluminescence quantum yield?
Result string: 0.158

Query string: Consider the compound shown here: COc1ccc(/C=C/C2=CC(/C=C/c3ccc(OC)cc3)=[N+]3C2=C(c2ccc(-c4ccc5ccccc5n4)s2)c2c(/C=C/c4ccc(OC)cc4)cc(/C=C/c4ccc(OC)cc4)n2[B-]3(F)F)cc1 What is its recorded photoluminescence quantum yield?
Result string: 0.36

Query string: Consider the compound shown here: CCC12C(=C3C(=C4c5ccc(-c6ccccc6)cc5S(=O)(=O)C41CC)C(F)(F)C(F)(F)C3(F)F)c1ccc(-c3ccccc3)cc1S2(=O)=O (stereo not drawn) What is its recorded photoluminescence quantum yield?
Result string: 0.87

Query string: Consider the compound shown here: COC(=O)c1nc2c(N(C)C)nc(N)nc2n1Cc1ccccc1 What is its recorded photoluminescence quantum yield?
Result string: 0.95
